Molecular target: norepinephrine transporters (NET) (Rattus norvegicus)
Construct: Whole rat brains (minus cerebellum) are homogenized; from tissue; host or cells: rat whole brain minus cerebellum, membranes
Sequence (Q9WTR4 1-597): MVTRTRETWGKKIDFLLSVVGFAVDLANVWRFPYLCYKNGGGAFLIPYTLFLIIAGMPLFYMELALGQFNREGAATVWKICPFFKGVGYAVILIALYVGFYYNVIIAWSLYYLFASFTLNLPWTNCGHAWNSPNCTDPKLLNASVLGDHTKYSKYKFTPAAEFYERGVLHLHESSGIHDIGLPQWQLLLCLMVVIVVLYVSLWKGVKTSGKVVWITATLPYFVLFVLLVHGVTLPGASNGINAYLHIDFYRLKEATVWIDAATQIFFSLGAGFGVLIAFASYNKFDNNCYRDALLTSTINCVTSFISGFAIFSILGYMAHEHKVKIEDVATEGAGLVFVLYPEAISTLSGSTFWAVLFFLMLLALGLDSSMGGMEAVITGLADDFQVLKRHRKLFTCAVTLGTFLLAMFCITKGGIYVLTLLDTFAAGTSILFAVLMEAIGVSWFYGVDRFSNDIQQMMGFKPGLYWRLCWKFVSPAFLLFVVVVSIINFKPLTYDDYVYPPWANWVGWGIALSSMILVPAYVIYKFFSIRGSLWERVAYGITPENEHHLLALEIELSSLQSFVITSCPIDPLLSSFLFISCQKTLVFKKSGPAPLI
Assay: NET binding, displacement of [3H]nisoxetine in rat brain membranes
Details: [3H]nisoxetine displacement, rat brain membranes; Ki by Cheng-Prusoff; read-out: NET
pKi: −log10 of the molar value. Counter-ions that a name gives are not always drawn.
OBSERVED PROPERTY: pKi

CNC[C@H]1C[C@@]1(C(=O)OC)c1ccc(Cl)c(Cl)c1 [HD-326] | 8.09
CNC[C@@H]1C[C@]1(C(=O)OC)c1ccc(Br)cc1 [HD-325] | 8.60
CNC[C@@H]1C[C@]1(C(=O)OC)c1ccc2ccccc2c1 [HD-331] | 7.98
CNC[C@H]1C[C@@]1(C(=O)OC)c1ccc2ccccc2c1 [HD-330] | 7.79
CNCC1CC1(C(=O)OC)c1ccc(OC)c(OC)c1 (racemic) [HD-289, hydrochloride] | 8.06
CNC[C@@H]1C[C@]1(C(=O)OC)c1ccc(Cl)c(Cl)c1 [HD-327] | 9.51
CNC[C@H]1C[C@@]1(C(=O)OC)c1ccc(Br)cc1 [HD-324] | 7.35
CNC[C@H]1C[C@@]1(C(=O)OC)c1ccc(Br)c(Br)c1 [HD-328] | 8.34
CNCC1CC1(C(=O)OC)c1ccccc1 (racemic) [HD-284] | 6.82

====

Molecular target: norepinephrine transporters (NET) (Rattus norvegicus)
Construct: Whole rat brains (minus cerebellum) are homogenized; from tissue; host or cells: rat whole brain minus cerebellum, membranes
Test: NET binding, displacement of [3H]nisoxetine in rat brain membranes
OBSERVED PROPERTY: Ki (nM)

CCN(CC)C(=O)C1(c2ccccc2)CC1CN (stereo not shown) [HD-283, Milnacipran, reference compound] | 23.8

====

Test: Log-P (Table 1)
Type: physicochemical
Counter-ions that a name gives are not always drawn.
Readings of Log-P for the listed molecules
OBSERVED PROPERTY: Log-P

CNC[C@@H]1C[C@]1(C(=O)OC)c1ccc(Cl)c(Cl)c1 | 2.95
CNC[C@H]1C[C@@]1(C(=O)OC)c1ccc(-c2ccccc2)cc1 | 3.54
CNCC1CC1(C(=O)OC)c1ccc(Br)cc1 (racemic) | 2.51
CCN(CC)C(=O)C1(c2ccccc2)CC1CN (stereo not shown) [HD-283, Milnacipran, reference compound] | 1.91
CNCC1CC1(C(=O)OC)c1ccccc1 (racemic) | 1.65
CNCC1CC1(C(=O)OC)c1ccccc1Cl (racemic) | 2.36
CNC[C@H]1C[C@@]1(C(=O)OC)c1ccc(Cl)c(Cl)c1 | 2.95
CNCC1CC1(C(=O)OC)c1ccc(Cl)c(Cl)c1 (racemic) | 2.95
CNCC1CC1(C(=O)OC)c1ccc(-c2ccccc2)cc1 (racemic) [HD-286, hydrochloride] | 3.54
CNC[C@@H]1C[C@]1(C(=O)OC)c1ccc(Br)cc1 | 2.51
CNC[C@@H]1C[C@]1(C(=O)OC)c1ccc2ccccc2c1 | 2.82
CNC[C@@H]1C[C@]1(C(=O)OC)c1ccc(Br)c(Br)c1 | 3.17
CNCC1CC1(C(=O)OC)c1ccc2ccccc2c1 (racemic) [HD-287, hydrochloride] | 2.82

====

Biological target: 5-HT transport (SERT) sites (Rattus norvegicus, UniProt P31652)
Construct: Tissue is obtained from frozen rat brains as described above; from tissue; host or cells: rat frontal cortex membranes (frozen rat brains)
Sequence (P31652 whole entry): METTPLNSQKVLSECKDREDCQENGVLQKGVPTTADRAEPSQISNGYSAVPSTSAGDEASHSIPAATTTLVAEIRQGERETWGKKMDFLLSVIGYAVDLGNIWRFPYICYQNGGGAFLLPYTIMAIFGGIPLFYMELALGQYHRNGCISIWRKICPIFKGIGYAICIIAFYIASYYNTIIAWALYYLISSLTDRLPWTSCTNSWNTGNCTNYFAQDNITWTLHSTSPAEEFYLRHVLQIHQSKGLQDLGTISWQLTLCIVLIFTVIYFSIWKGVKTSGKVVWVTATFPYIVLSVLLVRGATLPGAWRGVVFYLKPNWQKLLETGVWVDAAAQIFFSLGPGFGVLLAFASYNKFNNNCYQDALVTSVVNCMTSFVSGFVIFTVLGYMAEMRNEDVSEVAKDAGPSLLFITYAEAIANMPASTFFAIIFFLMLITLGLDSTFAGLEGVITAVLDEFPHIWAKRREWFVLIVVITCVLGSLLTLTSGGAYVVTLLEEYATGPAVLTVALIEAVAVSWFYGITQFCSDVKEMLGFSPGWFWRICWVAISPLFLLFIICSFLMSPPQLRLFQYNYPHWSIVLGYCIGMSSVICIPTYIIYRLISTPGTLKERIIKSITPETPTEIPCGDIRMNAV
Test: SERT binding, displacement of [3H]citalopram in rat frontal cortex membranes
Conditions: [3H]citalopram displacement, rat frontal cortex membranes; Ki by Cheng-Prusoff; read-out: SERT
pKi: −log10 of the molar value. Structures can show the parent of a compound that is named as a salt.
OBSERVED PROPERTY: pKi

CNC[C@H]1C[C@@]1(C(=O)OC)c1ccc(Br)c(Br)c1 | 7.74
CNCC1CC1(C(=O)OC)c1ccccc1 (racemic) | 6.80
CNCC1CC1(C(=O)OC)c1ccccc1Cl (racemic) | 6.48
CNC[C@H]1C[C@@]1(C(=O)OC)c1ccc(-c2ccccc2)cc1 | 7.10
CNCC1CC1(C(=O)OC)c1ccc(Cl)c(Cl)c1 (racemic) | 8.25
CNC[C@H]1C[C@@]1(C(=O)OC)c1ccc(Cl)c(Cl)c1 | 7.39
CNCC1CC1(C(=O)OC)c1ccc(Br)cc1 (racemic) | 6.68
CNCC1CC1(C(=O)OC)c1ccc(OC)c(OC)c1 (racemic) [HD-289, hydrochloride] | 6.97
CNCC1CC1(C(=O)OC)c1ccc(-c2ccccc2)cc1 (racemic) [HD-286, hydrochloride] | 8.31
CNC[C@@H]1C[C@]1(C(=O)OC)c1ccc(-c2ccccc2)cc1 | 8.57
CNC[C@@H]1C[C@]1(C(=O)OC)c1ccc(Br)cc1 | 7.33
CNC[C@H]1C[C@@]1(C(=O)OC)c1ccc(Br)cc1 | 6.02
CNC[C@@H]1C[C@]1(C(=O)OC)c1ccc(Br)c(Br)c1 | 8.77
CNC[C@@H]1C[C@]1(C(=O)OC)c1ccc(Cl)c(Cl)c1 | 8.62
